Target or system: UniProt P53778
Sequence (P53778 whole entry, looked up): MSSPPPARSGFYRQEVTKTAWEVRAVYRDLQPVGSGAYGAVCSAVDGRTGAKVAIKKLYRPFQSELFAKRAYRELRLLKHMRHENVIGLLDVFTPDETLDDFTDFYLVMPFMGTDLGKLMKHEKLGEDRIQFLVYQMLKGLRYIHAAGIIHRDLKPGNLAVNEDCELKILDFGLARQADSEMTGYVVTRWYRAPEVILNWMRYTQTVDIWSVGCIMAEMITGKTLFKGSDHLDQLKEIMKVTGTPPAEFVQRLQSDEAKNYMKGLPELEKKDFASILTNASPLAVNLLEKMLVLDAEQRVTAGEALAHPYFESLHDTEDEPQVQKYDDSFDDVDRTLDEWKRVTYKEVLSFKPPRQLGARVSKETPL
Assay: radiometric filter-binding kinase assay
Condition notes: compound 10.0 µM
Reported endpoint: residual activity (%)
Report the value in % with no unit label.

Could you share which residual activity value was measured for CCc1cncnc1N1CCN(Cc2nc3cc(C(F)(F)F)ccc3[nH]2)CC1 ?
103

For the molecule O=C(O)c1ccc(-c2c[nH]c3ncc(-c4ccccc4)cc23)cc1C1CCCC1 , what residual activity is on record?
35

I am curious: what residual activity value has been reported for Cc1ccc(-c2ccc3c(ccc4sc5c(c43)NC[C@@H](C)NC5=O)n2)cn1 ?
97

Can you look up the measured residual activity of CCNc1nc(Nc2cc(F)c(C(=O)N3CCOCC3)cc2OC)ncc1C(F)(F)F for me?
102

Fill in: residual activity of CC(C)(C#N)c1ccc(N2C(=O)OCc3cnc4ccc(-c5cnc6ccccc6c5)cc4c32)cc1 is ___
100

Please give the measured residual activity for this molecule: NC(=O)c1cc2c(-c3cccc(-c4ccccc4)c3)cnc(N)c2s1
38

* * *

Target or system: RPS6KA5 KD1 KD2 (human) (UniProt O75582)
Sequence (O75582 whole entry, looked up): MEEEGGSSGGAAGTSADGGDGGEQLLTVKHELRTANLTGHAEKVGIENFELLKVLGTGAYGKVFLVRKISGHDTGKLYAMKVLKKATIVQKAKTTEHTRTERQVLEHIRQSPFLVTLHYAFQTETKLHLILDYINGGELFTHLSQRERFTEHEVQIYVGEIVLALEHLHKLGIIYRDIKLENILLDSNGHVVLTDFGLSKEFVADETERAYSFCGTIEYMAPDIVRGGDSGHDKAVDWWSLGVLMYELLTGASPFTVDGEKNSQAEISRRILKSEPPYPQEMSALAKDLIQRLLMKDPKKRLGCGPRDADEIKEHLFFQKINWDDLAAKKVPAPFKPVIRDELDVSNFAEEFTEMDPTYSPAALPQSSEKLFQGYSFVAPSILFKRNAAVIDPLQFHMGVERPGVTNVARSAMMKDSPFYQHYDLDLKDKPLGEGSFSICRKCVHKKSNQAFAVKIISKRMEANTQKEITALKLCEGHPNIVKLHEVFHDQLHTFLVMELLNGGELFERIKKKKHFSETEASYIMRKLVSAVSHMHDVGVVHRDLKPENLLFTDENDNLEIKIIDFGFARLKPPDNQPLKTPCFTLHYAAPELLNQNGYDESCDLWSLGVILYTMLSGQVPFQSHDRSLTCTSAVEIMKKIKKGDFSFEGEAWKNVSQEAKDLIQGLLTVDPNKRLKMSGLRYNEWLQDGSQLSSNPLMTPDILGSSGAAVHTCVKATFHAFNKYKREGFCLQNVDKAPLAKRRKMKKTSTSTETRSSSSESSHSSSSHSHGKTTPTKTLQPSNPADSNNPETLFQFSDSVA
Assay: radiometric filter-binding kinase assay
Condition notes: compound 10.0 µM
Field: residual activity. Provide a value for each of the compounds that follow.
Express your answer in %, writing the number without its unit.

Value lookup for residual activity; key = O=C1NC(=S)N[C@@H]1Cc1c[nH]c2ccccc12
87

For CNc1nc(-c2ccc3c(N)n[nH]c3c2)cc(N2C[C@@H](C(=O)NC3CCCCC3)CC[C@H]2C)n1 , what is its reported residual activity?
66

// residual activity lookup, key: CN1C(=O)[C@@H](Cc2c[nH]c3ccccc23)NC1=S
90

Report residual activity for O=C(O)c1ccc(-c2c[nH]c3ncc(-c4ccccc4)cc23)cc1C1CCCC1 please.
62

Form field: reported residual activity of NS(=O)(=O)OC[C@@H]1C[C@@H](n2ccc3c(N[C@H]4CCc5ccccc54)ncnc32)C[C@@H]1O
110

I'd like to know its residual activity. The compound in question is O=C(Nc1ccccc1-c1cn2c(CN3CCNCC3)csc2n1)c1cnc2ccccc2n1
68

Which residual activity value is on record for COC(=O)/C=C/C(=O)OC ?
107

What value of residual activity has been reported for the following compound? COc1cc2ncn(-c3cc(OCc4ccccc4S(C)(=O)=O)c(C#N)s3)c2cc1OC
58

Requested read-out: residual activity. Entry: O=C(O)c1cc(N=Nc2ccc(S(=O)(=O)Nc3ccccn3)cc2)ccc1O
95

May I ask what residual activity has been recorded for c1ccc2c(-c3cnn4cc(-c5ccc(N6CCNCC6)cc5)cnc34)ccnc2c1 ?
87

Consider the compound Cc1ccc(-c2ccc3c(ccc4sc5c(c43)NC[C@@H](C)NC5=O)n2)cn1 and give its measured residual activity.
99

residual activity for CCn1c(-c2nonc2N)nc2cncc(CNC3CCNCC3)c21 ?
1

Consider the compound shown here: COc1ccc2c(c1)c1c3c(c4c5ccccc5n(C)c4c1n2CC(O)CN(C)C)C(=O)NC3=O (centres undefined) What is its recorded residual activity?
3

Quick one: residual activity of FC(F)(F)c1ccc(-c2ccc(Oc3cncc4sc(-c5nn[nH]n5)cc34)cc2)cc1 ?
22

* * *

Target or system: UniProt:O14920
Sequence (O14920 whole entry, looked up): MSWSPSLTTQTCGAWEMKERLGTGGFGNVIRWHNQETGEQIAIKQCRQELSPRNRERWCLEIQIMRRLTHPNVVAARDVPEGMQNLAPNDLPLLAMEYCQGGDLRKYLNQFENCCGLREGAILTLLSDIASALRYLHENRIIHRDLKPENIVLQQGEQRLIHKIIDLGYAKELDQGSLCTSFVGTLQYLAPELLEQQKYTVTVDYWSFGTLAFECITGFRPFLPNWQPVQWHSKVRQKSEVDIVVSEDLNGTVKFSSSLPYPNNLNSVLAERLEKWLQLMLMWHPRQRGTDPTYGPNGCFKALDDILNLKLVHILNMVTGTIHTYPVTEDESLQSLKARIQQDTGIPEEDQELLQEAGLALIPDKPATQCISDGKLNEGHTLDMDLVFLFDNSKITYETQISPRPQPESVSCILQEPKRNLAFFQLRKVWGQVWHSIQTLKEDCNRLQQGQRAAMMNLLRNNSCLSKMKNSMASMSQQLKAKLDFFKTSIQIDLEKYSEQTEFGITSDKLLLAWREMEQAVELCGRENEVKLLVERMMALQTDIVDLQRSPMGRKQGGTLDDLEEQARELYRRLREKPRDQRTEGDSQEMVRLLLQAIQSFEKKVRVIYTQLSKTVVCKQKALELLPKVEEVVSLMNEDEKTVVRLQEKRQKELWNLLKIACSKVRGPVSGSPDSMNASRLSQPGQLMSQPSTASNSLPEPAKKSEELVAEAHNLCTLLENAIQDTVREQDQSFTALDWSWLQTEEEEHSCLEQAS
Assay: radiometric filter-binding kinase assay
Condition notes: compound 10.0 µM
Task for the reader: assign each of the following compounds its reported residual activity.
Record the value in %, omitting the unit from your answer.

Using the record for Oc1ccc2ccccc2c1SSc1c(O)ccc2ccccc12 , report its residual activity.
68

// residual activity lookup, key: Nc1cccc2c1CN(C1CCC(=O)NC1=O)C2=O (stereo not given)
106

Report residual activity for Cn1nc(Nc2ccc(F)cc2)c2c(N)ncnc21 please.
96

Report residual activity for O=C(O)c1cc(N=Nc2ccc(S(=O)(=O)Nc3ccccn3)cc2)ccc1O please.
89

State the recorded residual activity for this entry: CNc1nc(-c2ccc3c(N)n[nH]c3c2)cc(N2C[C@@H](C(=O)NC3CCCCC3)CC[C@H]2C)n1
103

* * *

Target or system: PRKACA (human)
Assay: radiometric filter-binding kinase assay
Condition notes: compound 10.0 µM
Please go through the items and note down their residual activity.
Report the figure in % without appending any unit label.

What value of residual activity on PRKACA (human) does NC(=O)c1c(NC(=O)C2CC2)sc2c1CCCC2 have?
102

// map Cc1ccc(=O)n(-c2ccccc2)c1 to recorded residual activity (system: PRKACA (human))
97

Please tell me: residual activity of CCn1c(-c2nonc2N)nc2cncc(CNC3CCNCC3)c21 , system PRKACA (human)?
8

Query for PRKACA (human): what residual activity does the record show for Cc1ccc2c(c1)C(=O)[C@@]1(O)CCN(c3ccccc3)C1=N2 ?
101

Test system PRKACA (human); read-out residual activity; what value for Cn1nc(Nc2ccc(F)cc2)c2c(N)ncnc21 ?
107

Query the reported residual activity for PRKACA (human); item: NC(=O)Nc1ccc2c(c1)/C(=C/c1cc(-c3cccnc3)c[nH]1)C(=O)N2
32

Param readout = residual activity; param system = PRKACA (human); param query = Nc1cccc2c1CN(C1CCC(=O)NC1=O)C2=O (stereo not drawn) ; response: value
84

Give PRKACA (human) residual activity for O=c1c(O)c(-c2ccc(O)c(O)c2)oc2cc(O)c(O)c(O)c12
79

Identify the measured residual activity of NC(=O)c1ccc(-c2ccc(Oc3cncc4sc(-c5nn[nH]n5)cc34)cc2)cc1 for PRKACA (human).
72

Quick check: residual activity on PRKACA (human), item C[C@H]1CCCC(=O)CCC/C=C/c2cc(O)cc(O)c2C(=O)O1 ?
91

Form entry - test system: PRKACA (human); read-out: residual activity; compound: Cc1cc(SCc2sc(-c3ccc(C(F)(F)F)cc3)nc2C)ccc1OCC(=O)O
86

Hello, I am looking for reported residual activity with PRKACA (human) for NC(=O)c1cc2c(-c3cccc(-c4ccccc4)c3)cnc(N)c2s1 . Could you help?
96

Hello, I am looking for reported residual activity with PRKACA (human) for CC1=C(CO)C(=O)O[C@@H]([C@@H](C)[C@H]2CC[C@H]3[C@@H]4C[C@H]5O[C@]56[C@@H](O)C=CC(=O)[C@]6(C)C4CC[C@]23C)C1 (stereo partly drawn) . Could you help?
113

* * *

Kindly supply the reported residual activity values for the records listed here.
Target or system: MAPK9 (human) (UniProt P45984)
Sequence (P45984 whole entry, looked up): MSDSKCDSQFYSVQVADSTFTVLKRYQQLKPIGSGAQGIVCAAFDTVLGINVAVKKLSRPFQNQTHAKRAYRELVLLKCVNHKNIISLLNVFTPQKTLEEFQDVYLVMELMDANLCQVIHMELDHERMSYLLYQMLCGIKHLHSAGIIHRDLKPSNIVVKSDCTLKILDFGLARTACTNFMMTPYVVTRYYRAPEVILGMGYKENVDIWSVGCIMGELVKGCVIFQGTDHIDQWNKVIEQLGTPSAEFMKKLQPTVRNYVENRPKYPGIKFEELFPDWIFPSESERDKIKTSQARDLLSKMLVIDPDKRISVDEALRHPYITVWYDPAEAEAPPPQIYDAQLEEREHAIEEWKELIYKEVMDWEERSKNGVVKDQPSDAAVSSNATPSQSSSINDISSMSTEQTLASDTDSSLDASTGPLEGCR
Assay: radiometric filter-binding kinase assay
Condition notes: compound 1.0 µM
Field format: number, assumed %, no unit text.

Need residual activity, item NC(=O)c1cc2c(-c3cccc(-c4ccccc4)c3)cnc(N)c2s1
82

Give its residual activity value. Item: CCCCCc1ccc(/C=C/[C@H](O)[C@@H](CO)NC)cc1
90

Record request: residual activity value, item O=c1c(O)c(-c2ccc(O)c(O)c2)oc2cc(O)c(O)c(O)c12
106

Could you tell me which residual activity is on file for NC1(c2ccc(-c3nc4ccn5c(=O)[nH]nc5c4cc3-c3ccccc3)cc2)CCC1 ?
94

Which residual activity value belongs to CCc1cncnc1N1CCN(Cc2nc3cc(C(F)(F)F)ccc3[nH]2)CC1 ?
93

Query (molecule): Nc1cccc2c1CN(C1CCC(=O)NC1=O)C2=O (stereo not given) ; field requested: residual activity
100

Could you share which residual activity value was measured for O=C(NOC[C@H](O)CO)c1ccc(F)c(F)c1Nc1ccc(I)cc1Cl ?
90

Look up residual activity for this molecule: Cc1ccc(=O)n(-c2ccccc2)c1
85

Consider the molecule CCNc1nc(Nc2cc(F)c(C(=O)N3CCOCC3)cc2OC)ncc1C(F)(F)F and give its measured residual activity.
104

Which residual activity is reported for this molecule? O=C(Nc1cccnc1)c1cc(-c2ccnc(F)c2)ccc1OCc1ccccc1
107

Recorded residual activity for NCC(=O)Nc1ccc(-n2nc(C(F)(F)F)cc2-c2ccc3c(ccc4ccccc43)c2)cc1 , please?
102

Using the record for C=C1C(=O)OC2C1CC/C(C)=C/CCC1(C)OC21 (stereo not given) , report its residual activity.
114

Which value of residual activity has been reported for CN(C)C/C=C/C(=O)Nc1cccc(C(=O)Nc2ccc(Nc3nccc(-c4cccnc4)n3)cc2)c1 in the records?
19

May I ask what residual activity has been recorded for CC1=C(CO)C(=O)O[C@@H]([C@@H](C)[C@H]2CC[C@H]3[C@@H]4C[C@H]5O[C@]56[C@@H](O)C=CC(=O)[C@]6(C)C4CC[C@]23C)C1 (stereo not given in full) ?
114

Endpoint output: residual activity of NC(=O)c1c(NC(=O)C2CC2)sc2c1CCCC2 . Value?
106

* * *

Target or system: DYRK1A (human)
Assay: radiometric filter-binding kinase assay
Condition notes: compound 10.0 µM
Reported endpoint: residual activity
Write the numeric value and follow it with the unit.

Requested field: residual activity. Item: CCc1cncnc1N1CCN(Cc2nc3cc(C(F)(F)F)ccc3[nH]2)CC1
85%

Entry N#Cc1c(C2CCNCC2)cc(-c2c(O)cccc2OCC2CC2)nc1N : reported residual activity = ?
80%

Tell me the measured residual activity of CN1C(=O)[C@@H](Cc2c[nH]c3ccccc23)NC1=S , please.
94%

Looking for the measured residual activity of Oc1ccc2ccccc2c1SSc1c(O)ccc2ccccc12 , can you help?
83%

Item under review: NC(=O)c1cc2c(-c3cccc(-c4ccccc4)c3)cnc(N)c2s1 . Reported residual activity?
5%

Can you share its residual activity? I mean this compound: N#Cc1c(O)c2c(-c3ccc(-c4ccccc4O)cc3)csc2[nH]c1=O
75%

Suppose we examine the compound Cc1nc(-c2ccc(OCC(C)C)c(C#N)c2)sc1C(=O)O ; what residual activity value has been reported?
85%

What measured residual activity goes with Cc1cc(SCc2sc(-c3ccc(C(F)(F)F)cc3)nc2C)ccc1OCC(=O)O ?
59%

residual activity for O=c1c(O)c(-c2ccc(O)c(O)c2)oc2cc(O)c(O)c(O)c12 ?
3%

For the compound O=C1NC(=S)N[C@@H]1Cc1c[nH]c2ccccc12 , what residual activity is on record?
92%

Item under review: NC(=O)c1cc(-c2ccnc(NC3CCCCC3)c2)nc(N2CCNCC2)c1 . Reported residual activity?
21%

Would you kindly share the measured residual activity for O=S(=O)(c1ccc(F)c2nonc12)N1CCN(c2ncc(C(F)(F)F)cc2Cl)CC1 ?
72%

Tell me the measured residual activity of Cc1ccc(Sc2cnc(Nc3cccc(Br)n3)s2)cc1C(=O)N1CCN(C(=O)CN)CC1 , please.
61%

Tell me the measured residual activity of CCNc1nc(Nc2cc(F)c(C(=O)N3CCOCC3)cc2OC)ncc1C(F)(F)F , please.
48%

Requested read-out: residual activity. Entry: O=C(NOCC(O)CO)c1ccc(F)c(F)c1Nc1ccc(I)cc1Cl (configuration not stated)
85%

Fill blank: measured residual activity of the compound c1ccc2c(-c3cnn4cc(-c5ccc(N6CCNCC6)cc5)cnc34)ccnc2c1 is ____.
9%

For NC(=O)c1c(NC(=O)C2CC2)sc2c1CCCC2 , what is its reported residual activity?
48%

Look at this compound and give its reported residual activity. COC(=O)/C=C/C(=O)OC
105%

Item FC(F)(F)c1ccc(-c2ccc(Oc3cncc4sc(-c5nn[nH]n5)cc34)cc2)cc1 has what recorded residual activity?
5%

Reported residual activity, compound COc1cc2ncn(-c3cc(OCc4ccccc4S(C)(=O)=O)c(C#N)s3)c2cc1OC : ____
81%

Any idea what residual activity was measured for Oc1ccc(/C=C/c2cc(O)cc(O)c2)cc1 ?
61%

Please look up its residual activity: O=C1Nc2nc(-c3c(O)cccc3OCC3CC3)cc(C3CCCNC3)c2CO1 (configuration not stated)
82%

Given the entry Cc1ccc(=O)n(-c2ccccc2)c1 , report its measured residual activity.
91%

Given the entry CNc1nc(-c2ccc3c(N)n[nH]c3c2)cc(N2C[C@@H](C(=O)NC3CCCCC3)CC[C@H]2C)n1 , report its measured residual activity.
82%

If you can, please state the reported residual activity value of CCn1c(-c2nonc2N)nc2cncc(CNC3CCNCC3)c21 .
35%

Name the reported residual activity value associated with the compound NC(=O)c1ccc(-c2ccc(Oc3cncc4sc(-c5nn[nH]n5)cc34)cc2)cc1
3%

// query residual activity value for entry COc1cc(C(=O)N2CCOCC2)c(F)cc1Nc1ncc(C(F)(F)F)c(NC2CC2)n1
38%
